- Protocol description: Plasma concentration in wild type C57BL mouse at 3 mg/kg, po measured after 4 hrs
- Assay type: ADME, organism-based
Measured metric: concentration at 4 h (nM)
I only need the number, in nM, no unit after it.

Chemical smiles | concentration at 4 h, nM
CC(C)[C@@H]1c2nn(-c3cccc(S(C)(=O)=O)c3)cc2CN1c1ccnc(C(F)(F)F)n1 | 2890

# next compound below
concentration at 4 h recorded for this compound, `COc1cc(N2Cc3cn(-c4cccc(S(C)(=O)=O)c4)nc3[C@H]2C(C)(C)C)ccn1` , is 1080

---

- Protocol description: Drug uptake in Sprague-Dawley rat brain at 1 mg/kg qd administered via oral gavage for 5 days measured 4 hrs post last dose
- Type: ADME, organism-based
- Condition details: read-out: Drug uptake
Measured metric: concentration at 4 h (nM)
I only need the number, in nM, no unit after it.

concentration at 4 h recorded for this compound, `COc1cc(N2Cc3cn(-c4cccc(S(C)(=O)=O)c4)nc3[C@H]2C(C)(C)C)ccn1` , is 641

---

- Protocol description: Plasma concentration in wild type C57BL mouse at 30 mg/kg, po measured after 4 hrs
- Assay type: ADME, organism-based
Measured metric: concentration at 4 h (µM)
I only need the number, in µM, no unit after it.

concentration at 4 h recorded for this compound, `O=S(=O)(c1ccccc1)N(CC(F)(F)F)c1ccc(C(O)(C(F)(F)F)C(F)(F)F)cc1` , is 3.77

---

Measured concentration at 4 h values are reported for all entries that follow.
- Protocol description: Plasma concentration in wild type C57BL mouse at 1 mg/kg, po measured after 4 hrs
- Assay type: ADME, organism-based
I only need the number, in nM, no unit after it.

Chemical smiles | Unit of measurement | Value reported
Cc1nc(N2Cc3cn(-c4cccc(S(C)(=O)=O)c4)nc3[C@H]2C(C)C)cc(C(F)(F)F)n1 | nM | 143
COc1nc(C)cc(N2Cc3cn(-c4cccc(S(C)(=O)=O)c4)nc3[C@H]2C(C)C)n1 | nM | 2

concentration at 4 h recorded for this compound, `COc1ncc(F)c(N2Cc3cn(-c4cccc(S(C)(=O)=O)c4)nc3[C@H]2C(C)C)n1` , is 50

---

Measured IC50 values are reported for all entries that follow.
- Target: Cytochrome P450 3A4 (Homo sapiens)
- Sequence (P08684 whole entry): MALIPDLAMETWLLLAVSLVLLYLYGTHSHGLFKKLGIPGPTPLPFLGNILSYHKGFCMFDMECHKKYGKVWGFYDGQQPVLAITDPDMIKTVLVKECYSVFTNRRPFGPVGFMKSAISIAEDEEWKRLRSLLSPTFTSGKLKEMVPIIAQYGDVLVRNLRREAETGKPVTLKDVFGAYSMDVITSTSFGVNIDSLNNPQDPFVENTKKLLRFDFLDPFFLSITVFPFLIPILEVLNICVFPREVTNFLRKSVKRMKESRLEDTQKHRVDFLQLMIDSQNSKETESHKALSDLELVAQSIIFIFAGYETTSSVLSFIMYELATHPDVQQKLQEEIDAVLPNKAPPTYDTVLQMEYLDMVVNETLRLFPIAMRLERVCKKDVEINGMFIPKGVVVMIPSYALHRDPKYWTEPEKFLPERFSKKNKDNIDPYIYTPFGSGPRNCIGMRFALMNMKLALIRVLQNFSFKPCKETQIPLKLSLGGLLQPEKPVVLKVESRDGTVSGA
I only need the number, in µM, no unit after it.

Consider the reported IC50 for these compounds:
Chemical smiles | Unit of measurement | IC50
COc1ncc(F)c(N2Cc3cn(-c4cccc(S(C)(=O)=O)c4)nc3[C@H]2C(C)C)n1 | µM | 15.4
CC(C)[C@@H]1c2nn(-c3cccc(S(C)(=O)=O)c3)cc2CN1c1ncc(CO)c(C(F)(F)F)n1 | µM | 3.05

# next compound below
IC50 recorded for this compound, `Cc1nc(N2Cc3cn(-c4cccc(S(C)(=O)=O)c4)nc3[C@H]2C(C)C)cc(C(F)(F)F)n1` , is 21.1

---

- Protocol description: Drug uptake in Sprague-Dawley rat brain at 10 mg/kg qd administered via oral gavage for 5 days measured 4 hrs post last dose
- Type: ADME, organism-based
- Condition details: read-out: Drug uptake
Measured metric: concentration at 4 h (µM)
I only need the number, in µM, no unit after it.

concentration at 4 h recorded for this compound, `COc1cc(N2Cc3cn(-c4cccc(S(C)(=O)=O)c4)nc3[C@H]2C(C)(C)C)ccn1` , is 5.04
